molecular target: fibrinogen (Bos taurus, UniProt P02672+P02676+P12799); test: SPR adsorption of fibrinogen to SAMs / grafted polymer films; assay type: binding, bovine; conditions: mixed SAM —CONRR′/—CO2H
Sequence (P02672 20-615): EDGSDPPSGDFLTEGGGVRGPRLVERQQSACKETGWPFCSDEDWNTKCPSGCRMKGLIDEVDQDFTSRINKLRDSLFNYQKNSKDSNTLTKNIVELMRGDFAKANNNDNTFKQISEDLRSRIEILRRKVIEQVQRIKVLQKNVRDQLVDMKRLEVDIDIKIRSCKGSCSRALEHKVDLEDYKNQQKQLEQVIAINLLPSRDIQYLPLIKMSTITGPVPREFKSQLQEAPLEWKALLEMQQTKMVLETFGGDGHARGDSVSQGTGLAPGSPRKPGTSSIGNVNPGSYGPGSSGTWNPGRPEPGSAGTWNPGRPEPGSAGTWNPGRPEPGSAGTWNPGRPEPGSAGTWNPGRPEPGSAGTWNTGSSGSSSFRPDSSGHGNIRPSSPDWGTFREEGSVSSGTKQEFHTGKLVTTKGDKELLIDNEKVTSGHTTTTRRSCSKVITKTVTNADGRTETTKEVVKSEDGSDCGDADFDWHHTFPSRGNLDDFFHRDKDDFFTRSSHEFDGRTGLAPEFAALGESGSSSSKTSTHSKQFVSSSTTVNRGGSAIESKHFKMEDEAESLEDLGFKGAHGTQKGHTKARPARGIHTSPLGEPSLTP
Sequence (P02676 whole entry): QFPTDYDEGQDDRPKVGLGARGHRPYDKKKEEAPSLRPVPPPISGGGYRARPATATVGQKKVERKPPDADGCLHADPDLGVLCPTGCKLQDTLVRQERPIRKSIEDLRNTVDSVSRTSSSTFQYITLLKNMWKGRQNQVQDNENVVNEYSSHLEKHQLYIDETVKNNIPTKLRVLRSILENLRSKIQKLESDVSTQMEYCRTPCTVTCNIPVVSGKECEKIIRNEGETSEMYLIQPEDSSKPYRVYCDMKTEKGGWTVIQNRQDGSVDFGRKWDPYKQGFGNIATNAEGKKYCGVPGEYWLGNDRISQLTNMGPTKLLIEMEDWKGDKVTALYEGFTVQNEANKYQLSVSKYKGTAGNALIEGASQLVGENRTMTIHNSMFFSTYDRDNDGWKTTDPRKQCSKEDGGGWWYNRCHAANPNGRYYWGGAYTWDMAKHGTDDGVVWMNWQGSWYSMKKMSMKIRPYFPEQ
Sequence (P12799 25-444): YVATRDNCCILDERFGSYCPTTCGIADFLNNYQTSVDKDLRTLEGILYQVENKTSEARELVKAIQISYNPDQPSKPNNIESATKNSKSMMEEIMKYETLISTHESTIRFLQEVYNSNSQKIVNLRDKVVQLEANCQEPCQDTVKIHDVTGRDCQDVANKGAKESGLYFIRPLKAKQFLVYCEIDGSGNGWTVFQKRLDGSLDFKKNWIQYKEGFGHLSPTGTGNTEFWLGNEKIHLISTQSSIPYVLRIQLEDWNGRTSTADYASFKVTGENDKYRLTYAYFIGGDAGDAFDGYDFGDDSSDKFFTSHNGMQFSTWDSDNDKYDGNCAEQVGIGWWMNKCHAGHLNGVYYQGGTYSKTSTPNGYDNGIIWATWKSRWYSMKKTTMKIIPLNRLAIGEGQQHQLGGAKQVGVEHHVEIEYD
Where a SMILES comes first, the peptide text is derived from it. [ ]: non-standard residue; d: D form. Sar = CNCC(=O)O
EXPERIMENTAL_READOUT: dR/dton fibrinogen (maximum initial rate of adsorption) (RU/sec)
// note: answer is a bare numeric in RU/sec

Examples with their reported dR/dton fibrinogen (maximum initial rate of adsorption) follow.
CNCC(=O)N(C)CC(=O)N(C)CC(=O)N(C)C [H(CH3)N(Sar)3N(CH3)2] (H-[Sar]-[Sar]-[Sar]-NMe2)
60
C[N+](C)(C)CCN.[Cl-]
300

Note: attention shifts to another entry.
Q: Find the recorded dR/dton fibrinogen (maximum initial rate of adsorption) belonging to CNCCN(C)C(=O)N(C)C and report it.
A: 60
